B1: EPB41L3 (parent)
chain: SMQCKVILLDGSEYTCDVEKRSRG

Variants of: B1
Protocol: protein stability index of a GFP-peptide fusion (GPS, HEK-293T) (PSI 1-6); higher = more stable;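 also: lentivirally expressed fusions sorted by FACS into six bins by GFP to DsRed ratio, PSI derived from sequencing read proportions per bin multiplied by bin number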
Condition Context: c terminus: a fixed tail appended
Outcome Measure: protein stability index
Lab note: record the figure alone, no unit after it.

These recorded examples may help you get a feel for the data.
>  <Mutant Designation>
S22H

>  <protein stability index>
2.89

$$$$
>  <Mutant Designation>
S12W

>  <protein stability index>
1.94

$$$$
>  <Mutant Designation>
E19C

>  <protein stability index>
2.13

$$$$
>  <Mutant Designation>
S22R

>  <protein stability index>
3.11

$$$$
>  <Mutant Designation>
D17E

>  <protein stability index>
2.84

$$$$
>  <Mutant Designation>
G24F

>  <protein stability index>
2.47

$$$$
>  <Mutant Designation>
V18S

>  <protein stability index>
3.69

$$$$
>  <Mutant Designation>
T15P

>  <protein stability index>
3.37

$$$$
>  <Mutant Designation>
S1C

>  <protein stability index>
1.74

$$$$
>  <Mutant Designation>
S1N

>  <protein stability index>
2.34

$$$$

Find the recorded protein stability index belonging to K20E and report it.
3.26

Sample K5Q — what was its protein stability index?
3.06

Recorded protein stability index for G24L , please?
2.47

May I ask what protein stability index has been recorded for V6G ?
3.61

Entry C4S has what protein stability index?
3.78

Requested field: protein stability index. Item: K20L
1.67
